apparent KD of K4 kissing-loop reporter listing for selected sequences.
System: K4 kissing-loop RNA reporter
Experiment: apparent KD of K4 kissing-loop reporter; higher = weaker reporter binding
Conditions: Eterna round: R107; input ligand: tryptophan 2.4 mM
Provide the reading as a plain figure in nM.

Would you please look over these solved cases?
ACCAUCAAAGAUGGCCAGGACUCCGCUGAUACCAGAGUGAAAACACUCCCUUGGCAGCAGGUGAGUGAUGUUCACGAGUCCUGGA [Omel KL Theo A SS B v6] :: 836
CCUAUCUCAUACGAUACCAGUCAACGAGUGAUGUUCGAAUAAAUAAAUUUGCCAAAUAAUGACCCUUGGCAGCGUAUGGGAUAGG [Ex Theophylline B K4 15] :: 247
CCGCUGUACUGCAUUAAGUGAUGUUUAGUGCAGGAUAUCUGGAAACAGAGAAGGGCAUGUACUCGACUUAGCCACUACAGCGGUU :: 129
AGCAUUAUCAGAAGGAGCGUGUAUAAAUCAAUAGUAUUGUAUUCGAGUGAUGUUCGUAAUACACAGGUAGGUCGCUGAUAUUGCA [JR_ExcArginiB_Sub002] :: 161
GUUUGGCGGGCGGCCGCCACUCGGACGAGUCGCAGUGAUGUUGUGGUUUGCCAGUCGUCUUCAUCGAGGACCGGGUUUGUCGGGC [Exclusion Tryptophan B GF 19] :: 496

The record that follows has no apparent KD of K4 kissing-loop reporter shown yet.
Please tell me the measured apparent KD of K4 kissing-loop reporter for AUACGUUUAAGUGAUACCAGACUGGUGAGUGAUGUUUACCAAUAAAUUAAAUUAUUAGCUGUCCCUUGGCAGCACAGUUUAUUUA [JR_ExcTheophyB_Sub005] ; system: K4 kissing-loop RNA reporter.
229

----------
System: K4 kissing-loop RNA reporter
Experiment: apparent KD of K4 kissing-loop reporter; higher = weaker reporter binding
Conditions: Eterna round: R107; input ligand: none
apparent KD of K4 kissing-loop reporter listing for selected sequences.
Provide the reading as a plain figure in µM.

AUCCGAGAAUAUGAUACCAGCUGAGUGUAUCAAGACCGUAUCUCCCGUGCUAGUGAUGUUAGCCCUUGGCAGCAUAUGAAAGCGG [theeternabot_exclusion_KL_Theo_B_15] :: 0.467
UAAGAGGACCACUGCAAGAGUCCUCGAAUACGAGGACCGGUACGGCCGCCACUCGAUAACUUGCAGUGAUGUUGCAAGUAAGAAU [(T)''-(K)'-(T)'-(T1)-(T2)-(K1)-(K2)_Design1] :: 0.119
AACGGCCAGUCGGCCGCCACUCAAAGCAGUGAUGUUGCUAACUUUCUAAAAGAGUGAUGUUCUUAGAGGACCGGGACUAAUGUAA [Exclusion Tryptophan B GF 2] :: 0.125
GGCGGCUGCGCGCAAGCGCAGCCGGCCGAUACCAGCGCGACGGCGCGCCCUUGGCAGCGGCGCCGAGUGAUGUUCGGCCUGCCGG [#2 Same State - Theophylline A Attempt #19 (HarryS)] :: 0.738

The record that follows has no apparent KD of K4 kissing-loop reporter shown yet.
Note down apparent KD of K4 kissing-loop reporter recorded for GCGUCAUCGAAAGGAUAUGGAGUAGUGAUGUUGAUCCAUAUGCUCACGCAUAGCCGAGAACAUCGACCAGAAGGUUCAAGAACUG [theeternabot_exclusion_KL_FMN_B_41]
0.757

----------
Test system: MS2 coat protein
Test: apparent KD of MS2 coat protein; designed switch direction (-1 OFF switch, 1 ON switch): -1; higher = weaker reporter binding
Conditions: input ligand: none
apparent KD of MS2 coat protein listing for selected sequences.
Put your answer as a value accompanied by its unit after it.

UGACAGUGAGGAUAUUAUCUGAGGGACAUGAGGAUCACCCAUGUGCACUCACGGGCCCAGUAAGAAGGCACGAGCU [EX5 B.23] (Eterna round: R97, puzzle: Exclusion 5) :: 18.8 nM
ACUGUUGCAGGAUAUAUGGUGCUAGACAUGAGGAUCACCCAUGUAGGCCUUGUCUAGCAGGUAGAAGGGCACCCAC [Eternabot (L1) Solution 94] (Eterna round: R97, puzzle: Exclusion 5) :: 224 nM
AAGGGUGCCCUUAGAAAGACAUGAGGAUCACCCAUGUAGACUGAGGAUAUCCACUCCUAAGGACCGGAGAAGGCAGUGUAAUGC [Qubion] (Eterna round: R96, puzzle: Exclusion NG 3) :: 18.2 nM

Please tell me the measured apparent KD of MS2 coat protein for ACCAGCAUACGGAGAUCCAACAUGAGGAUCACCCAUGUCUGGAAAGCUUUUUGCUUGUCUUAUCCUCCUCUGUGUGU [Design #5] (Eterna round: R97, puzzle: Sensor, turn-off variant 1) ; system: MS2 coat protein.
32.2 nM

Please tell me the measured apparent KD of MS2 coat protein for CUUGUUUAUGUAGGAUAUGCCUGGCGUGCCUUUGCAGAAGGACAUGAGGAUCACCCAUGUAACAUGAGGCUUACCCUUGUCGCC [salish99_ExNG1_r04_119] (Eterna round: R96, puzzle: Exclusion NG 1) ; system: MS2 coat protein.
68.9 nM

Please tell me the measured apparent KD of MS2 coat protein for CUCGUGUAAGGAUAUGUACCGACACCGCUAAAGCGGCUCCGACAGAAGGUACAUGAGGAUCACCCAUGUACUGC [EX4 B.2] (Eterna round: R97, puzzle: Exclusion 4) ; system: MS2 coat protein.
20.3 nM

Please tell me the measured apparent KD of MS2 coat protein for UCGUGUAUAGAGGAUAUAUUAAUAUUUAAAACAAUAGAAGGCUAAACAUGAGGAUCACCCAUGUAUUUGGUUUU [JR_Ex6_Sub054] (Eterna round: R97, puzzle: Exclusion 6) ; system: MS2 coat protein.
20.9 nM

----------
System: MS2 coat protein
Assay: apparent KD of MS2 coat protein; higher = weaker reporter binding
Settings: Eterna round: R107; input ligand: arginine 13.2 mM
Class Satisfied: apparent KD of MS2 coat protein at least 20 nM. Class Not satisfied: apparent KD of MS2 coat protein below 20 nM.

Some solved entries appear below for comparison.
UACUUGCUGACGGCCGCCACUAGAACAUGAGGAUCACCCAUGUAUCUAGUGGCAAUCCUCAUGACUAGGACCGGGUCAGCAAGAU [(Trp1)-(Ms2)-(T)'-(M)'-(Trp2)_Design1] :: Not satisfied
GCACCAGGUACGGAUACCAGAAUUUGCCAAUUGGGUGAACAUGAGGAUCACCCAUGUUAUUUCCCUUGGCAGCCGUACCUGGUGC [ETB NP+V+V2 #10] :: Not satisfied

Then there is this sequence:
Determine whether measured apparent KD of MS2 coat protein meets or exceeds 20 nM for GGAGGCCUUAGGGAUACCAGCUAAGUUGAGUACAUGAGGAUCACCCAUGUGUUCCCAGAGAGCCCUUGGCAGCCCUCAUCCGUUC [theeternabot_sameState_MS2_Theo_B_7]
Not satisfied

----------
Test system: MS2 coat protein
Experiment: apparent KD of MS2 coat protein; higher = weaker reporter binding
Conditions: Eterna round: R107; input ligand: theophylline 2 mM
Class criterion met: apparent KD of MS2 coat protein at least 80 nM. Class criterion not met: apparent KD of MS2 coat protein below 80 nM.

Some solved entries appear below for comparison.
UCGUUUGAGUCGGCCGCCACUGGUCUCAUGGUCAACAUGAGGAUCACCCAUGUAUCUUAGUUAAACAGGACCGGGACUCGAUCGA [#17 Exclusion Tryptophan B] :: criterion not met
UGGUACAUGGCGGCCGCCACUUCACGUAAAAUAAAAGCGUGAGGAUCACCCAUGCAAUAAGUUGGGAGGACCGGGUCAUGUACCU :: criterion met
GUAAUUAUAAGAAGGAGCGUCGAAAAUGGGUAAACAUGAGGAUCACCCAUGUAAAGGGAACGACAGGUAGGUCGCUUAUGAUUAC [AstromonsSSArgB#22] :: criterion met
CCGACGAUGACCAAAGGUCAGGAGUGCGCACGAGGACCGGUACGGCCGCCACUCGAGGAGUGGGACAUGAGGAUCACCCAUGUAA [X-TryptA-ms2@65-1] :: criterion not met
UAUCGUCAGACGGCCGCCACUAGUACAUGAGGAUCACCCAUGUAGGUCCUAGAUUCCUCAUGAUCUAGGACCGGGUCUGACGAAU [(Trp1)-(Ms2)-(T)'-(M)'-(Trp2)_Design16] :: criterion not met

Then there is this sequence:
Determine whether measured apparent KD of MS2 coat protein meets or exceeds 80 nM for AAACAACAUGAGGAUCACCCAUGUACCGAUACCAGCCAAAUAUAAGGCCCUUGGCAGCGGAGUAAAUCCGGAGGACAAUGGGUAA [Same State Theophylline A GF5]
criterion not met

----------
Test system: K4 kissing-loop RNA reporter;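 also: bound reporter read as fluorescence of individual clusters on recovered sequencing chips by microscopy, with normalized cluster intensities fitted with a binding model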
Experiment: apparent KD of K4 kissing-loop reporter; higher = weaker reporter binding
Conditions: Eterna round: R107; input ligand: FMN 200 uM
apparent KD of K4 kissing-loop reporter listing for selected sequences.
Provide the reading as a plain figure in nM.

UUACGCGGCAUAGAUACCAGCAAUGCAGGAUAGGUCAAGAGUGAUGUUCUGAUACUUGGGUGCCCUUGGCAGCUAGACGAUAACA [theeternabot_sameState_KL_Theo_B_46] :: 479
GUAGUUGCGCAAGGAUAUUAGUUAAGUGAUGUUUGAUUCGGUAUUGUUUACGUACACUGACCCGAUUAAGAAGGUGCGGGCAGCG [theeternabot_exclusion_KL_FMN_B_50] :: 604
AGUGCACUGGCAGGAUAUGUACAGUGAUGUUGUGUAUGUCAGCAAGUCAAAGACUUGCUCUUCUGUGCAGAAGGGCCUGUGUACA [#05 K4 FMN B Exclusion] :: 442
UAACUUGCAGUGAUGUUGCAAGAACUGGAUACCAGCAUGGAAACAUGCCCUUGGCAGCCAGAAGCUGGCUGACUGCAAGGUCAGC [Design4] :: 148
GGUUCUGGAAUCGAGUGAUGUUCGGUGUUGCAGGAUAUAGAGAGAUCUAGAAGGGCAGUUUGUAUUUUAUUGAGUGAUUUUCUUU [Last Minute #3] :: 84
GGGAGUAGUGCGGCCGCCACUGAGAAAGAAGAAGAAUAUAGUGAUGUUAUGUAGGAAAGGAAGAACAGGACCGGGCAUUAGAUUU [SSTRyptB.G] :: 455
AAACAUUGGUCUGAUACCAGCUGAUCGGAAACGAUCAUGCUGGAGUGAUGUUCCAGGAAAAGCCCUUGGCAGCAGACCGAUGAAA [MAT - Same State Theophlline B - Mod of Eli - D28] :: 94.7
CAUACGCAUGGAGGAUAUGAGAUUUCUCAUAUUAUUUAAUAUUCUCAGUGAUGUUGAGAUUUAAACUCAGAAGGCCAUGUGUAUG [Ex FMN B 6] :: 388

Note down apparent KD of K4 kissing-loop reporter recorded for CCUUCUCUUGAUAGUGAUGUUGUCGAGGACAAGGAUAUCAUCUCAAUGAGAAGGUGUCCUUGAUAACAUGGAGGUCUGAAACAGA [Omei KL FMN A Exc C v10]
468
